Assayed target: HMGB1-BoxB
Sequence (P09429 whole entry): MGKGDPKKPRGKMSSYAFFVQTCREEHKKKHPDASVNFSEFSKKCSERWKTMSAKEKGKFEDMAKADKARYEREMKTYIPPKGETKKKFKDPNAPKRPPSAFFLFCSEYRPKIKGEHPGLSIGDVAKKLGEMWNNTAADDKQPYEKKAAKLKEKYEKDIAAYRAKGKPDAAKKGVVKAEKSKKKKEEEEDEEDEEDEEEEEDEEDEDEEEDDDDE
Assay overview: MST; 10 nM target protein labelled on its His tag (RED-tris-NTA) mixed with sixteen 1:1 serial dilutions of the peptide; PBS-T (0.05 % Tween 20); incubated at least 40 min at room temperature; 25 °C; Monolith NT.115 Pico, excitation 20 %, MST power 40 %
pKd: −log10 of the molar value.
Reported metric: pKd

- PRHYMMWIH [HBP08–3]: 7.82
- PRHYQMWIH (Reconstituted in DMSO; also called G1P + E5Q; source: synthetic peptide, synthetized by Proteogenix (without TFA), purity about 99 %) [HBP08–2]: 7.95

Cited source for all entries: paper PMC12925725
